We begin with a simple list: items and their reported IC50 at 24 h.
- Test Method Notes: MTT test, cytotoxic effect on cells of normal origin
- Assay type: cell-based, human
- Test Conditions: human, Hek-293 cells (normal origin), 24 h treatment, 0.1 to 100 µM, normal cells, concentration that causes 50% cell death

- Molecule: "O=[N+]([O-])c1cc(C(F)(F)F)ccc1-n1cnc2ccccc21 [3a]"
  Relation Qualifier: "="
  IC50 at 24 h, µM: 77.3
- Molecule: "Nc1cc(C(F)(F)F)ccc1Nc1cc(C(F)(F)F)ccc1-n1nnc2ccccc21 [6b]"
  Relation Qualifier: "="
  IC50 at 24 h, µM: 22.4
- Molecule: "CCOC(=O)c1ccc(Nc2cc(C(F)(F)F)ccc2-n2nnc3ccccc32)c([N+](=O)[O-])c1 [5c]"
  Relation Qualifier: "≥"
  IC50 at 24 h, µM: 100
- Molecule: "Nc1cc(C(F)(F)F)ccc1-n1cnc2ccccc21 [4a]"
  Relation Qualifier: "="
  IC50 at 24 h, µM: 82.9
- Molecule: "O=[N+]([O-])c1cc(C(F)(F)F)ccc1Nc1cc(Cl)ccc1-n1nnc2ccccc21 [5d]"
  Relation Qualifier: "≥"
  IC50 at 24 h, µM: 100
